# Assay details: TOR pathway LAP4-GFP level changes – S. cerevisiae, multiplex flow cytometry, primary screen (AID 1873)
# Condition label: S. cerevisiae LAP4-GFP expression, 3 h, at 10 µM, stronger effect = higher value
Results filed as inconclusive are left out.
# label = t if GFP response vs DMSO >= 90% else f

| Molecule | Label class |
| --- | --- |
| CC(C)CN1CCN(Cc2cccn2-c2ccccn2)CC1CCO (centres undefined) | f |
| Cc1occc(=O)c1O | f |
| CN(CCO)CC(O)Cn1cnc2c1c(=O)n(C)c(=O)n2C (centres undefined) (tested in a mixture with another compound) | t |
| COc1ccc(-c2coc3c(CN4CCOCC4)c(O)ccc3c2=O)cc1 | t |
| CC1=NN(C(=O)c2ccc(Br)cc2)C(O)(c2ccccc2)C1 (centres undefined) | t |
| O=C(N/C(=C/C=C\c1ccccc1)C(=O)N1CCOCC1)c1ccc(Br)cc1 | t |
| CCOc1ccc(C(=O)C(C)=O)c(OCC)c1 | t |
| c1ccc2[nH]c(-c3cscn3)nc2c1 | t |
| CC(=O)OCC[N+](C)(C)C | f |
| Cc1ccc(OCCCCn2ccnc2C)c(C)c1 | t |
| Cc1ccc(-c2nn(-c3cccc(F)c3)cc2CN2CCN(c3ccccn3)CC2)o1 | t |
| CC12CCC(C(=O)NNc3ccccc3)(C(=O)C1=O)C2(C)C (centres undefined) | t |
| C/C(=N\NC(=O)c1ccccc1[N+](=O)[O-])c1ccc(Br)s1 | t |
| Cc1cnc(NC(=O)C2=C(O)c3ccccc3S(=O)(=O)N2C)s1 | f |
| COC(=O)c1cc(COc2ccc3ccc(=O)oc3c2)c(C)o1 | t |
| Cc1ccnc2c1NC(=O)c1cccnc1N2C1CC1 | t |
| C=CCOC(=O)C1=C(C)NC(=O)NC1/C=C/c1ccccc1OC (centres undefined) | t |
| CCNC(=O)C12CCC(C)(C(=O)O1)C2(C)C (centres undefined) | t |
| CSCC[C@H](NC(=O)Nc1ccc(C)cc1C)C(=O)O | t |
| CCC(C)NCCOc1ccccc1C (centres undefined) | t |
| O=C(Nc1cccc(Oc2c(F)c(F)c(F)c(F)c2F)c1)N1C[C@@H]2C[C@@H](C1)c1cccc(=O)n1C2 | t |
| Cc1cc(=O)oc2c(CN(C)Cc3ccccc3)c(O)ccc12 | t |
